System: A549 cells
Experiment: MTT assay (cytotoxicity), A549 cells
Type: cell-based
Details: 72 h treatment, Table 6.1
Provide the recorded IC50 for the entries that follow.
Numbers only, in µM.

N#Cc1ccc(NC(=O)N/C=C/c2cccc(C(F)(F)F)c2)cc1C(F)(F)F    2.7

Tell me the measured IC50 of O=C(N/C=C/c1cccc(C(F)(F)F)c1)Nc1cnccn1 , please.
0.09

====

System: LNCaP cells
Test: MTT assay (cytotoxicity), LNCaP cells
Assay type: cell-based
Conditions: 72 h, Table 2.2
hey, just use TRUE if measured IC50 is less than 10 µM, otherwise FALSE

Some solved entries appear below for comparison.
N#Cc1ccc(NC(=O)N/C=C/c2cccc(C(F)(F)F)c2)cc1C(F)(F)F [Compound 410]    TRUE
O=C(N/C=C/c1cccc([N+](=O)[O-])c1)Nc1ccc([N+](=O)[O-])c(C(F)(F)F)c1 [Compound 456]    TRUE
CN(C)c1ccc(NC(=O)N/C=C/c2cccc(C(F)(F)F)c2)cc1 [Compound 435]    FALSE
O=C(N/C=C/c1cccc(C(F)(F)F)c1)Nc1ccc(-n2ccnc2)cc1 [Compound 446]    FALSE
N#Cc1ccc(NC(=O)N/C=C/c2cc(C(F)(F)F)cc(C(F)(F)F)c2)cc1C(F)(F)F [Compound 463]    TRUE

Hello, I'm reviewing records and need to know if IC50 of O=C(N/C=C/c1ccc(C(F)(F)F)cc1)Nc1cccc(C(F)(F)F)c1 [Compound 408] is below 10 µM. Could you check?
FALSE

Hello, I'm reviewing records and need to know if IC50 of COc1cccc(NC(=O)N/C=C/c2ccccc2C(F)(F)F)c1 [Compound 429] is below 10 µM. Could you check?
TRUE

Hello, I'm reviewing records and need to know if IC50 of O=C(N/C=C/c1cccc(C(F)(F)F)c1)Nc1ccccc1 [Compound 413] is below 10 µM. Could you check?
FALSE
